- Target desc: T1, AAV8 (adeno-associated virus 8, Assembled 60-mer capsid of VP1/VP2/VP3 (nested products of one cap gene), amine-coupled to a CM5 chip; the letters give one VP1 subunit only.)
- T1 construct: also called adeno-associated virus serotype 8
- T1 chain: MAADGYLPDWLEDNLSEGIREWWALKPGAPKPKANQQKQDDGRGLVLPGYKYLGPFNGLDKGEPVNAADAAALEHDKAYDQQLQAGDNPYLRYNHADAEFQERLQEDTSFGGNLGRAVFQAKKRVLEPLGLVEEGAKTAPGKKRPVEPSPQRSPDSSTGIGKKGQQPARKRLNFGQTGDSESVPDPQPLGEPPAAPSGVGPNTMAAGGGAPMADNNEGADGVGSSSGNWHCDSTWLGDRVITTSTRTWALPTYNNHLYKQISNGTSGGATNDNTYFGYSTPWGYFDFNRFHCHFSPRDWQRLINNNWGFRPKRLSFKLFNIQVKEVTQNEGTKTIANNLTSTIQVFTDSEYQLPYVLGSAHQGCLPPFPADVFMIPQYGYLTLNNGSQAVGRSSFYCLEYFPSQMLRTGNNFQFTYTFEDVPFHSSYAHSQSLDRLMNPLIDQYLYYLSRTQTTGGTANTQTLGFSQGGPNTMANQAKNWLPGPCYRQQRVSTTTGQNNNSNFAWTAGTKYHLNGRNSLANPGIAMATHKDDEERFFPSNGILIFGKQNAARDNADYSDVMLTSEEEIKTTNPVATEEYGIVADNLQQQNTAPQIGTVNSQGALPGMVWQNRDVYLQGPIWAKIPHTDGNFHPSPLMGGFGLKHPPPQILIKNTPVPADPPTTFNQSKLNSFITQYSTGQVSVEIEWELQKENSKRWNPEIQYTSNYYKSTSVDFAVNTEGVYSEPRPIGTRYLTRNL
- Measurement protocol: SPR, AAV amine-coupled to CM5 chip
Each entry below carries its recorded kon.
Just the number please, in M⁻¹ s⁻¹, no unit attached.

Solved cases (2 shown):
Binder	kon / M⁻¹ s⁻¹
A4-C7 (bispecific antibody) VQLQESGGGLVQPGGSLRLSCAASGSNFSINTMGWYRQAPGKQRELVATVTRGGDTNYADSVKGRFTISRDNAKNTVYLQMNSLRPEDTAVYYCHVDEIRESSWTTSNLWGQGTQVTVSSGGGGSGGGGSGGGGSVQLQESGGGLVQPGGSLRLSCAASGSNFRINTMGWYRQAPGKQRELVAPVTRGGSTNYADSVKGRFTISRDNAKNTVYLQMNSLRPEDTAVYYCHVDEVRESSWTTSNLWGQGTQVTVSSGGGGSGGGGSGGGGSVQLQESGGGLVQPGGSLRLSCAASGSSFTINTMGWYRQAPGKQRELVAAVTRGGSTNYAGSVKGRFTISRDNAKNTIYLQMNSLRPEDTAVYYCHVDEIRQSSWTTSNLWGQGTQVTVSS	127000
A4-C9 (bispecific antibody) VQLQESGGGLVQPGGSLRLSCAASGSNFSINTMGWYRQAPGKQRELVATVTRGGDTNYADSVKGRFTISRDNAKNTVYLQMNSLRPEDTAVYYCHVDEIRESSWTTSNLWGQGTQVTVSSGGGGSGGGGSGGGGSVQLQESGGGLVQPGGSLRLSCAASGSNFSINTMGWYRQAPGKQRELVAALTRGGSTNYADSVKGRFTISRDNAKNTVYLQMNSLRPEDTAVYYCHVDEVRESSWTTSNLWGQGTQVTVSSGGGGSGGGGSGGGGSVQLQESGGGLVQPGGSLRLSCAASGSNFRINTMGWYRQAPGKQRELVAPVTRGGSTNYADSVKGRFTISRDNAKNTVYLQMNSLRPEDTAVYYCHVDEVRESSWTTSNLWGQGTQVTVSS	114000

Okay, now this binder:
Data request: Item A4-C8 (bispecific antibody) VQLQESGGGLVQPGGSLRLSCAASGSNFRINTMGWYRQAPGKQRELVAPVTRGGSTNYADSVKGRFTISRDNAKNTVYLQMNSLRPEDTAVYYCHVDEVRESSWTTSNLWGQGTQVTVSSGGGGSGGGGSGGGGSVQLQESGGGLVQPGGSLRLSCAASGSNFSINTMGWYRQAPGKQRELVATVTRGGDTNYADSVKGRFTISRDNAKNTVYLQMNSLRPEDTAVYYCHVDEIRESSWTTSNLWGQGTQVTVSSGGGGSGGGGSGGGGSVQLQESGGGLVQPGGSLRLSCAASGSNFSINTMGWYRQAPGKQRELVAALTRGGSTNYADSVKGRFTISRDNAKNTVYLQMNSLRPEDTAVYYCHVDEVRESSWTTSNLWGQGTQVTVSS : provide kon
Data returned: 132000
